Source of measurements: paper PMC7248897

Test system: CDK4 (Homo sapiens)
Construct: purchased Reaction Biology Corp. (Kinase HotSpot service)
Assay name: CDK4 kinase inhibition (Reaction Biology HotSpot)
Format: biochemical
Cond: single dose of 20 µM
From the text: 5. CDK Kinase Inhibitory Activity along with required cofactors. Kinase activity data were (dimethyl sulfoxide) reactions.
Outcome: yes for inhibition at 20 µM of at least 50%; no for anything lower.

                                 cpd_smiles  class
0  O=C1Nc2ccc(Br)cc2/C1=N/NC(=O)c1cc2ccccc2[nH]1     no
1  O=C1Nc2ccc(OC(F)(F)F)cc2/C1=N/NC(=O)c1cc2ccccc2[nH]1     no
2  Cc1ccc2c(c1)/C(=N/NC(=O)c1cc3ccccc3[nH]1)C(=O)N2    yes

Problem: Kindly determine if inhibition at 20 µM recorded for O=C1Nc2ccc([N+](=O)[O-])cc2/C1=N/NC(=O)c1cc2ccccc2[nH]1 is above or exactly 50%.
Result: no

Problem: Kindly determine if inhibition at 20 µM recorded for O=C(N/N=C1\C(=O)N(Cc2ccc(F)cc2)c2ccccc21)c1cc2ccccc2[nH]1 is above or exactly 50%.
Result: no

* * *

Test system: CDK9 (Homo sapiens, UniProt P50750)
Sequence (P50750 whole entry): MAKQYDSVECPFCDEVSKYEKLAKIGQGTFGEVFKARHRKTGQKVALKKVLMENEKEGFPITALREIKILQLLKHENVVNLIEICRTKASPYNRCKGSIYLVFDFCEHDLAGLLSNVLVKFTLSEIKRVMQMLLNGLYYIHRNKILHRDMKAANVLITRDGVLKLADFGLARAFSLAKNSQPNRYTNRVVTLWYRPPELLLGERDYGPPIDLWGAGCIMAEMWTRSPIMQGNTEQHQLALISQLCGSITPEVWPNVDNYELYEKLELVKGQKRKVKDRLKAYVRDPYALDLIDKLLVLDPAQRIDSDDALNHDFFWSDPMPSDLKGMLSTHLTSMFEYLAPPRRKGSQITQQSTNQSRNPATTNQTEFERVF
Sequence (O60563 whole entry partner): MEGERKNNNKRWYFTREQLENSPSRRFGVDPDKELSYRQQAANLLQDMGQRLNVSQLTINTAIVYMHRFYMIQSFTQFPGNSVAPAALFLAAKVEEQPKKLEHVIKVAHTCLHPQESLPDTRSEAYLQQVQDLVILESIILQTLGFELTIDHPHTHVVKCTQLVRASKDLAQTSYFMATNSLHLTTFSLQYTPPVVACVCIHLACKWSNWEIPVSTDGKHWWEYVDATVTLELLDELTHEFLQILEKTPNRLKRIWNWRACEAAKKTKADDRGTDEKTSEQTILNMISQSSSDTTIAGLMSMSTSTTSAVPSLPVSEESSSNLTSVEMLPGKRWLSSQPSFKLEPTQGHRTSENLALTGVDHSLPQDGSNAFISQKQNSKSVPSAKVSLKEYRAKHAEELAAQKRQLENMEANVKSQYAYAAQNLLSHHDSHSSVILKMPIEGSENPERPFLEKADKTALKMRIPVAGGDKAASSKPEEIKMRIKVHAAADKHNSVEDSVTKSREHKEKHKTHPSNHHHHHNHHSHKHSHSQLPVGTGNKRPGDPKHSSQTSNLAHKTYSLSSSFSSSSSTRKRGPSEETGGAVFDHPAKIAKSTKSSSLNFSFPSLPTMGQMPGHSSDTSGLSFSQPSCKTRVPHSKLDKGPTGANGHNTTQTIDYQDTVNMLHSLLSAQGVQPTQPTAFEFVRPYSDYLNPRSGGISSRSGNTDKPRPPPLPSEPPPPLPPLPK
Assay name: CDK9 kinase inhibition (Reaction Biology HotSpot)
Cond: read-out: % Enzyme Inhibitory Activity CDK9
Outcome: true (1) for inhibition at 20 µM of at least 8%; false (0) for anything lower.

Example entries and their recorded answers appear below.
                                   molecule                          test_system      class
0  O=C1Nc2ccc(OC(F)(F)F)cc2/C1=N/NC(=O)c1cc2ccccc2[nH]1  CDK9 (Homo sapiens, UniProt P50750)  false (0)
1  O=C1Nc2ccc(Cl)cc2/C1=N/NC(=O)c1cc2ccccc2[nH]1  CDK9 (Homo sapiens, UniProt P50750)   true (1)
2  O=C1Nc2ccc(F)cc2/C1=N/NC(=O)c1cc2ccccc2[nH]1  CDK9 (Homo sapiens, UniProt P50750)  false (0)

# evaluate next
Problem: Kindly determine if inhibition at 20 µM recorded for CN[C@@H]1C[C@H]2O[C@@](C)([C@@H]1OC)n1c3ccccc3c3c4c(c5c6ccccc6n2c5c31)C(=O)NC4 [Staurosporine, reference compound] is above or exactly 8%.
Result: true (1)

* * *

# reported inhibition at 20 µM; entries follow
Test system: CDK2 (Homo sapiens, UniProt P24941)
Construct: purchased Reaction Biology Corp. (Kinase HotSpot service)
Assay name: CDK2 kinase inhibition (Reaction Biology HotSpot)
Type: biochemical
Cond: single dose of 20 µM; read-out: % Enzyme Inhibitory Activity CDK2
State the answer as a number, implicitly in %.

Solved entries:
In [3]: df
Out[3]:
                                 cpd_smiles                          test_system  obs_value
0  O=C1Nc2ccccc2/C1=N/NC(=O)c1cc2ccccc2[nH]1  CDK2 (Homo sapiens, UniProt P24941)         78
1  O=C1Nc2ccc(OC(F)(F)F)cc2/C1=N/NC(=O)c1cc2ccccc2[nH]1  CDK2 (Homo sapiens, UniProt P24941)         14
2  O=C1Nc2ccc(F)cc2/C1=N/NC(=O)c1cc2ccccc2[nH]1  CDK2 (Homo sapiens, UniProt P24941)         48
3  O=C1Nc2ccc(Br)cc2/C1=N/NC(=O)c1cc2ccccc2[nH]1  CDK2 (Homo sapiens, UniProt P24941)         85

Problem: Identify inhibition at 20 µM associated with the compound CN1C(=O)/C(=N\NC(=O)c2cc3ccccc3[nH]2)c2ccccc21
Result: 41

Problem: Identify inhibition at 20 µM associated with the compound O=C(N/N=C1\C(=O)N(Cc2ccc(F)cc2)c2ccccc21)c1cc2ccccc2[nH]1
Result: 5

* * *

System: MDA-MB-231 breast cancer cell line
Assay name: SRB anti-proliferative assay, MDA-MB-231
Format: cell-based, human
Cond: Homo sapiens, MDA-MB-231; SRB assay, 48 h; mean ± S.D. from 3 separate experiments; read-out: IC50 MDA-MB-231
Quantity: log10 IC50 (log10 of the value in µM)
The base-10 logarithm of IC50, taken with IC50 in µM, is what appears here.

Solved entries:
>>> print(df.to_string())
                                 cpd_smiles                         test_system    quantity  obs_value
0  COc1ccc2c(c1)/C(=N/NC(=O)c1cc3ccccc3[nH]1)C(=O)N2  MDA-MB-231 breast cancer cell line  log10 IC50       0.45
1  O=C1Nc2ccc([N+](=O)[O-])cc2/C1=N/NC(=O)c1cc2ccccc2[nH]1  MDA-MB-231 breast cancer cell line  log10 IC50       0.27
2  O=C1Nc2ccc(Br)cc2/C1=N/NC(=O)c1cc2ccccc2[nH]1  MDA-MB-231 breast cancer cell line  log10 IC50       1.26
3  CN1C(=O)/C(=N\NC(=O)c2cc3ccccc3[nH]2)c2ccccc21  MDA-MB-231 breast cancer cell line  log10 IC50       0.92

Problem: Identify log10 IC50 associated with the compound Cc1ccc2c(c1)/C(=N/NC(=O)c1cc3ccccc3[nH]1)C(=O)N2
Result: 1.35

* * *

Test system: CDK4 (Homo sapiens, UniProt P11802)
Sequence (P11802 whole entry): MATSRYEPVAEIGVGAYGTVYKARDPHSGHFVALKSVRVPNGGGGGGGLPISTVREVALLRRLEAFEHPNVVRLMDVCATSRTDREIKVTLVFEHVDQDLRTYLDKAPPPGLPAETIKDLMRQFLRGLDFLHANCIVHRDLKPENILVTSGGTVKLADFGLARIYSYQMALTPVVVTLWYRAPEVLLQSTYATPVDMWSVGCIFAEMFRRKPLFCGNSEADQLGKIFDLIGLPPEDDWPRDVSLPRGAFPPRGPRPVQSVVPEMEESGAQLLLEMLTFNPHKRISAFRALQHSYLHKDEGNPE
Sequence (P24385 whole entry partner): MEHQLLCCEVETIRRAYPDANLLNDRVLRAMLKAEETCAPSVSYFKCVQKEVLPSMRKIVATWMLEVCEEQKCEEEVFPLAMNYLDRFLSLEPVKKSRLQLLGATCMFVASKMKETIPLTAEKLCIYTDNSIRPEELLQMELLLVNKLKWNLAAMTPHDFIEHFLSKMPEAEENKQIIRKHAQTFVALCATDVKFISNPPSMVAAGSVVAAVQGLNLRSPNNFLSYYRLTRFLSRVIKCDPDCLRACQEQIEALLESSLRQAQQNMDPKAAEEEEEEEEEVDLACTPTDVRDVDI
Quantity: IC50 (nM)
State the answer as a number, implicitly in nM.

Problem: Provide CDK4 (Homo sapiens, UniProt P11802) IC50 reading for Cc1ccc2c(c1)/C(=N/NC(=O)c1cc3ccccc3[nH]1)C(=O)N2 [6e] .
Result: 1260

* * *

Test system: CDK4 (Homo sapiens)
Construct: purchased Reaction Biology Corp. (Kinase HotSpot service)
Assay name: CDK4 kinase inhibition (Reaction Biology HotSpot)
Type: biochemical
Cond: single dose of 20 µM
# reported inhibition at 20 µM; entries follow
State the answer as a number, implicitly in %.

Solved entries:
                                 cpd_smiles          test_system  units_text  obs_value
0  O=C1Nc2ccc(Cl)cc2/C1=N/NC(=O)c1cc2ccccc2[nH]1  CDK4 (Homo sapiens)           %         28
1  O=C1Nc2ccccc2/C1=N/NC(=O)c1cc2ccccc2[nH]1  CDK4 (Homo sapiens)           %         92
2  COc1ccc2c(c1)/C(=N/NC(=O)c1cc3ccccc3[nH]1)C(=O)N2  CDK4 (Homo sapiens)           %         14
3  CN1C(=O)/C(=N\NC(=O)c2cc3ccccc3[nH]2)c2ccccc21  CDK4 (Homo sapiens)           %         20

Problem: Identify inhibition at 20 µM associated with the compound O=C1Nc2ccc(F)cc2/C1=N/NC(=O)c1cc2ccccc2[nH]1
Result: 33

* * *

# reported inhibition at 20 µM; entries follow
Test system: CDK9 (Homo sapiens)
Assay name: CDK9 kinase inhibition (Reaction Biology HotSpot)
Cond: read-out: % Enzyme Inhibitory Activity CDK9
State the answer as a number, implicitly in %.

                                   compound  units_text  obs_value
0  O=C1Nc2ccc([N+](=O)[O-])cc2/C1=N/NC(=O)c1cc2ccccc2[nH]1 [6h]           %         10
1  O=C(N/N=C1\C(=O)N(Cc2ccc(F)cc2)c2ccccc21)c1cc2ccccc2[nH]1 [9e]           %          9
2  Cc1ccc2c(c1)/C(=N/NC(=O)c1cc3ccccc3[nH]1)C(=O)N2 [6e]           %         18

Problem: Identify inhibition at 20 µM associated with the compound CN1C(=O)/C(=N\NC(=O)c2cc3ccccc3[nH]2)c2ccccc21 [9a]
Result: 13

Problem: Identify inhibition at 20 µM associated with the compound O=C1Nc2ccc(Br)cc2/C1=N/NC(=O)c1cc2ccccc2[nH]1 [6d]
Result: 32

Problem: Identify inhibition at 20 µM associated with the compound O=C1Nc2ccccc2/C1=N/NC(=O)c1cc2ccccc2[nH]1 [6a]
Result: 20

* * *

# reported IC50; entries follow
Tested on: MDA-MB-231 breast cancer cell line
Assay name: SRB anti-proliferative assay, MDA-MB-231
Format: cell-based, human
Cond: Homo sapiens, MDA-MB-231; SRB assay, 48 h; mean ± S.D. from 3 separate experiments; read-out: IC50 MDA-MB-231
State the answer as a number, implicitly in µM.

>>> df
                                 cpd_smiles  obs_value
0  O=C1Nc2ccccc2/C1=N/NC(=O)c1cc2ccccc2[nH]1       15.1
1  O=C1Nc2ccc(F)cc2/C1=N/NC(=O)c1cc2ccccc2[nH]1       6.36
2  O=C1Nc2ccc(Cl)cc2/C1=N/NC(=O)c1cc2ccccc2[nH]1       9.48

# next molecule below
Problem: Identify IC50 associated with the molecule O=C1Nc2ccc(OC(F)(F)F)cc2/C1=N/NC(=O)c1cc2ccccc2[nH]1
Result: 7.19
